test system: K-562; assay: SRB colorimetric assay of cell growth and viability, K-562; type: cell-based, human; details: 48 hours exposure; read-out: LC50 K-562
Reported CC50 by item:
Record the result as number plus unit.

# example entries with known answers
- C/C=C1\NC(=O)[C@H](Cc2ccccc2)NC(=O)[C@@H](C(C)C)NC(=O)[C@@H]([C@@H](C)CC)NC(=O)[C@H](NC(=O)[C@H](NC(=O)[C@H](CCCN)NC(=O)[C@H]2CCCN2C(=O)[C@H](NC(=O)[C@@H](NC(=O)[C@@H](NC(=O)CNC(=O)CCCC(C)C)[C@@H](C)O)C(C)C)C(C)C)[C@@H](C)CC)[C@@H](C)OC(=O)[C@H](C(C)C)NC1=O [Compound 33, [Gly^13]-KF]: 6.96 µM
- C/C=C1\NC(=O)[C@H](Cc2ccccc2)NC(=O)[C@@H](C(C)C)NC(=O)[C@@H]([C@@H](C)CC)NC(=O)[C@H](NC(=O)[C@H](NC(=O)[C@H](CCCN)NC(=O)[C@H]2CCCN2C(=O)[C@H](NC(=O)[C@@H](NC(=O)[C@@H](NC(=O)[C@@H](CCC(=O)O)NC(=O)CCCC(C)C)[C@@H](C)O)C(C)C)C(C)C)[C@@H](C)CC)[C@@H](C)OC(=O)[C@H](C(C)C)NC1=O [Compound 39, [D-Glu^13]-KF]: 4.82 µM

Query string: Return the recorded CC50 value; entry: C/C=C1\NC(=O)[C@H](Cc2ccccc2)NC(=O)[C@@H](C(C)C)NC(=O)[C@@H]([C@@H](C)CC)NC(=O)[C@H](NC(=O)[C@H](NC(=O)[C@H](CCCN)NC(=O)[C@H]2CCCN2C(=O)[C@H](NC(=O)[C@@H](NC(=O)[C@@H](NC(=O)[C@@H](C)NC(=O)CCCC(C)C)[C@@H](C)O)C(C)C)C(C)C)[C@@H](C)CC)[C@@H](C)OC(=O)[C@H](C(C)C)NC1=O [Compound 34, [D-Ala^13]-KF]
Result string: 5.25 µM

----------
tested on: SK-BR-3; experiment: SRB colorimetric assay of cell growth and viability, SK-BR-3; format: cell-based, human; settings: SK-BR-3; 48 hours exposure
Where a SMILES comes first, the peptide text is derived from it. Bridges are numbered along the chain shown (N, C = ends). [ ]: non-standard residue; d: D form. The star is where a group is joined. Bip = N[C@@H](Cc1ccc(-c2ccccc2)cc1)C(=O)O; 2Nal = N[C@@H](Cc1ccc2ccccc2c1)C(=O)O; d(aIle) = CC[C@H](C)[C@@H](N)C(=O)O; d(aThr) = C[C@@H](O)[C@@H](N)C(=O)O; Hexanoyl(5-Me) = CC(C)CCCC(=O)*; Phg = N[C@H](C(=O)O)c1ccccc1; Orn = NCCC[C@H](N)C(=O)O; Dhb = C/C=C(\N)C(=O)O
test readout: LC50
Record the result as number plus unit.

Query string: Return the recorded LC50 value; entry: C/C=C1\NC(=O)[C@H](Cc2ccc(Cl)cc2)NC(=O)[C@@H](C(C)C)NC(=O)[C@@H]([C@@H](C)CC)NC(=O)[C@H](NC(=O)[C@H](NC(=O)[C@H](CCCN)NC(=O)[C@H]2CCCN2C(=O)[C@H](NC(=O)[C@@H](NC(=O)[C@@H](NC(=O)[C@H](NC(=O)CCCC(C)C)C(C)C)[C@@H](C)O)C(C)C)C(C)C)[C@@H](C)CC)[C@@H](C)OC(=O)[C@H](C(C)C)NC1=O [Compound 83, [Phe(4-Cl)^3]-KF]
Result string: 0.155 µM

Query string: Return the recorded LC50 value; entry: C/C=C1\NC(=O)[C@H](Cc2ccccc2)NC(=O)[C@@H](C(C)C)NC(=O)[C@@H]([C@@H](C)CC)NC(=O)[C@H](NC(=O)[C@H](NC(=O)[C@H](CCCN)NC(=O)[C@H]2CCCN2C(=O)[C@H](NC(=O)[C@@H](NC(=O)[C@H](CCCN)NC(=O)[C@H](NC(=O)CCCC(C)C)C(C)C)C(C)C)C(C)C)[C@@H](C)CC)[C@@H](C)OC(=O)[C@H](C(C)C)NC1=O [Compound 116, [Orn^12]-KF] ({Hexanoyl(5-Me)}-[dV][Orn]V[dV][dP][Orn][d(aIle)][d(aThr)][d(aIle)][dV]F[Dhb]V; ester 8-C)
Result string: 5.51 µM

Query string: Return the recorded LC50 value; entry: [2H]C([2H])([2H])C([2H])(C([2H])([2H])[2H])[C@]([2H])(NC(=O)[C@@H](NC(=O)[C@H](NC(=O)CCCC(C)C)C(C)C)[C@@H](C)O)C(=O)N[C@@H](C(=O)N1CCC[C@@H]1C(=O)N[C@@H](CCCN)C(=O)N[C@@H](C(=O)N[C@H]1C(=O)N[C@H]([C@@H](C)CC)C(=O)N[C@H](C(C)C)C(=O)N[C@@H](Cc2ccccc2)C(=O)N/C(=C\C)C(=O)N[C@@H](C(C)C)C(=O)O[C@@H]1C)[C@@H](C)CC)C(C)C [Compound 100, [L-Val-d8^11]-KF]
Result string: 1.45 µM

Query string: Return the recorded LC50 value; entry: C/C=C1\NC(=O)[C@H](c2ccccc2)NC(=O)[C@@H](C(C)C)NC(=O)[C@@H]([C@@H](C)CC)NC(=O)[C@H](NC(=O)[C@H](NC(=O)[C@H](CCCN)NC(=O)[C@H]2CCCN2C(=O)[C@H](NC(=O)[C@@H](NC(=O)[C@@H](NC(=O)[C@H](NC(=O)CCCC(C)C)C(C)C)[C@@H](C)O)C(C)C)C(C)C)[C@@H](C)CC)[C@@H](C)OC(=O)[C@H](C(C)C)NC1=O [Compound 87, [Phg^3]-KF] ({Hexanoyl(5-Me)}-[dV]TV[dV][dP][Orn][d(aIle)][d(aThr)][d(aIle)][dV][Phg][Dhb]V; ester 8-C)
Result string: 1.87 µM

Query string: Return the recorded LC50 value; entry: C/C=C1\NC(=O)[C@H](Cc2ccccc2)NC(=O)[C@@H](C(C)C)NC(=O)[C@@H]([C@@H](C)CC)NC(=O)[C@H](NC(=O)[C@H](NC(=O)[C@H](CCCN)NC(=O)[C@H]2CCCN2C(=O)[C@H](NC(=O)[C@@H](NC(=O)[C@@H](NC(=O)[C@@H](CCCN)NC(=O)CCCC(C)C)[C@@H](C)O)C(C)C)C(C)C)[C@@H](C)CC)[C@@H](C)OC(=O)[C@H](C(C)C)NC1=O [Compound 118, [D-Orn^13]-KF]
Result string: 4.42 µM

Query string: Return the recorded LC50 value; entry: C/C=C1\NC(=O)[C@H](Cc2ccc(-c3ccccc3)cc2)NC(=O)[C@@H](C(C)C)NC(=O)[C@@H]([C@@H](C)CC)NC(=O)[C@H](NC(=O)[C@H](NC(=O)[C@H](CCCN)NC(=O)[C@H]2CCCN2C(=O)[C@H](NC(=O)[C@@H](NC(=O)[C@@H](NC(=O)[C@H](NC(=O)CCCC(C)C)C(C)C)[C@@H](C)O)C(C)C)C(C)C)[C@@H](C)CC)[C@@H](C)OC(=O)[C@H](C(C)C)NC1=O [Compound 86, [Bip^3]-KF] ({Hexanoyl(5-Me)}-[dV]TV[dV][dP][Orn][d(aIle)][d(aThr)][d(aIle)][dV][Bip][Dhb]V; ester 8-C)
Result string: 5.07 µM

Query string: Return the recorded LC50 value; entry: C/C=C1\NC(=O)[C@H](Cc2ccccc2)NC(=O)[C@@H](C(C)C)NC(=O)[C@@H]([C@@H](C)CC)NC(=O)[C@H](NC(=O)[C@H](NC(=O)[C@H](CCCN)NC(=O)[C@H]2CCCN2C(=O)[C@H](NC(=O)[C@@H](NC(=O)CNC(=O)[C@H](NC(=O)CCCC(C)C)C(C)C)C(C)C)C(C)C)[C@@H](C)CC)[C@@H](C)OC(=O)[C@H](C(C)C)NC1=O [Compound 111, [Gly^12]-KF] ({Hexanoyl(5-Me)}-[dV]GV[dV][dP][Orn][d(aIle)][d(aThr)][d(aIle)][dV]F[Dhb]V; ester 8-C)
Result string: 5.94 µM

Query string: Return the recorded LC50 value; entry: C/C=C1\NC(=O)[C@H](Cc2ccc3ccccc3c2)NC(=O)[C@@H](C(C)C)NC(=O)[C@@H]([C@@H](C)CC)NC(=O)[C@H](NC(=O)[C@H](NC(=O)[C@H](CCCN)NC(=O)[C@H]2CCCN2C(=O)[C@H](NC(=O)[C@@H](NC(=O)[C@@H](NC(=O)[C@H](NC(=O)CCCC(C)C)C(C)C)[C@@H](C)O)C(C)C)C(C)C)[C@@H](C)CC)[C@@H](C)OC(=O)[C@H](C(C)C)NC1=O [Compound 85, [Nal^3]-KF] ({Hexanoyl(5-Me)}-[dV]TV[dV][dP][Orn][d(aIle)][d(aThr)][d(aIle)][dV][2Nal][Dhb]V; ester 8-C)
Result string: 0.17 µM
